System: Vero E6 infected with SARS-CoV-2
Experiment: inhibition of SARS-CoV-2 cytopathic effect; higher = more antiviral protection, active = above 15
Conditions: 10000 nM; 48 h
# Lookup of reported inhibition of SARS-CoV-2 cytopathic effect keyed by entry
parameter: inhibition of SARS-CoV-2 cytopathic effect

> print(dat)
                                   molecule    observed.result
1  Cc1nc2cnc3ccc(C#Cc4cccnc4)cc3c2n1-c1ccc(C(C)(C)C#N)cc1  -1.26% (inactive)
2  CCC(Cc1c(I)cc(I)c(N)c1I)C(=O)O (centres undefined) [iopanic-acid]   2.12% (inactive)
3  O=C(/C=C/c1ccc(O)c(O)c1)O[C@@H]1C[C@](O)(C(=O)O)C[C@@H](O)[C@H]1O [chlorogenic-acid]  -0.05% (inactive)
4  C[N+]1(C)CCC(=C(c2ccccc2)c2ccccc2)CC1 [diphemanil]   2.09% (inactive)
5  COc1ccc2nc(NC(=O)Nc3ccccc3)sc2c1 [frentizole]   1.78% (inactive)
6  O=c1[nH]c(=O)n([C@H]2C[C@H](O)[C@@H](CO)O2)cc1I [idoxuridine]  -2.33% (inactive)
7                    O=C1C2CCN(CC2)C1(CO)CO   5.06% (inactive)
8  O=C1CCCC(=O)C1C(=O)c1ccc(C(F)(F)F)cc1[N+](=O)[O-] [nitisinone]  -1.34% (inactive)
9  COc1cc2c(cc1OC)[C@@H]1Cc3ccc(OC)c(OC)c3CN1CC2 [rotundine]   3.54% (inactive)
